Biological target: Pyridoxine-5'-phosphate oxidase (Homo sapiens, UniProt Q9NVS9)
Sequence (Q9NVS9 whole entry): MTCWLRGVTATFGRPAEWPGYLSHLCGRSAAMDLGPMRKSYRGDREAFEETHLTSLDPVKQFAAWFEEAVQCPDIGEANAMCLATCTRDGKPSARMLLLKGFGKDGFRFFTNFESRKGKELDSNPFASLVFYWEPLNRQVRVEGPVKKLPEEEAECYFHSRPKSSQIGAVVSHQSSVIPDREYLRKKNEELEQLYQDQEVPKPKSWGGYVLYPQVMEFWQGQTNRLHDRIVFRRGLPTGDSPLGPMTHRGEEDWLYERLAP
ASSAY METRIC: Ki (nM)
Report the figure in nM without appending any unit label.

Ask: Write down Ki measured for item `C#Cc1c(COP(=O)(O)O)cnc(C)c1O`
Result: 550
